tgt: T1, human monomeric MuSK FLAG streptavidin (in house produced, batch 27-6-2019) (human, UniProt O15146 24-495)
T1 construct: also called full length MuSK; not shown: FLAG and streptavidin tags
T1 sequence: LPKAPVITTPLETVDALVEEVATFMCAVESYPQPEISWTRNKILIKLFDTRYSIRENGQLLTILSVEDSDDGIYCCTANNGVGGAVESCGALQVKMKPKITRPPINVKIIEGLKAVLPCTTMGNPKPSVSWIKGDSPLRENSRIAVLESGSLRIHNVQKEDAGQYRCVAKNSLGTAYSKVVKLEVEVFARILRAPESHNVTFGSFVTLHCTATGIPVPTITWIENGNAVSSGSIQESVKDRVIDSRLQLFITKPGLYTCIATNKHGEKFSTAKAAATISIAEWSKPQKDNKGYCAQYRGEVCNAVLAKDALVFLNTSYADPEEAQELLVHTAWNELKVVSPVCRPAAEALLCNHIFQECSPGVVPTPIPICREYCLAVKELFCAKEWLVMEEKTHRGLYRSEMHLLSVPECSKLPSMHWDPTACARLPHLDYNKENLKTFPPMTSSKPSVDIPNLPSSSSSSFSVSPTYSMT
experiment-description: epitope binning ELISA (coated anti-MuSK Fab, MuSK, IgG, anti-Fc HRP); competitor: 3D10a
Quick reference: OD 450 nm of the listed items.
Provide the reading as a plain figure in OD.

Some solved cases for reference:
binder: 3D10a (antibody, human IgG1, kappa, L234A L235A, V domains shown) VH: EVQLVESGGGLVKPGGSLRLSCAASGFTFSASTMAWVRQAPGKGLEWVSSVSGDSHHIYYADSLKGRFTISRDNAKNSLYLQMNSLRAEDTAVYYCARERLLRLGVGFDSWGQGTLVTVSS VL: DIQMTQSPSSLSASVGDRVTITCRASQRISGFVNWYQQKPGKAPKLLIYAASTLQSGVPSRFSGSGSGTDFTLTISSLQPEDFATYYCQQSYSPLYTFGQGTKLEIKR
assay-endpoint: OD 450 nm
val: 0.049
//
binder: 4D3 (antibody, human IgG1, kappa, L234A L235A, V domains shown) VH: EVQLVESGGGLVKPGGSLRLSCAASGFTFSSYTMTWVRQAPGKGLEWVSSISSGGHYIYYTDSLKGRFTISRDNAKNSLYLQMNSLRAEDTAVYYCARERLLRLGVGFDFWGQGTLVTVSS VL: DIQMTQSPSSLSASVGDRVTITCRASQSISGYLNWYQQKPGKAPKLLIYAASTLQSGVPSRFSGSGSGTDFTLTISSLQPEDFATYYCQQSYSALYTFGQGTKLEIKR
assay-endpoint: OD 450 nm
val: 0.008

// next entry
Reported OD 450 nm, binder 3B5 (antibody, V domains shown, also called 3B5wt) VH: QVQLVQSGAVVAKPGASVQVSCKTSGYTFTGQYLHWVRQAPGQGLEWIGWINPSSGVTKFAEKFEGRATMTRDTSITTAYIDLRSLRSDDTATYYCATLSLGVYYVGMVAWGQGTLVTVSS VL: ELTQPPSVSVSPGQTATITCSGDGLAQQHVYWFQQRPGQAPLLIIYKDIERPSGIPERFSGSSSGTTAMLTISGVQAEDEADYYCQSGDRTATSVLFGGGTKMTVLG : ____
1.88
